TARGET ENTITY: MMP-1 (Homo sapiens, UniProt P03956)
Sequence (P03956 100-469): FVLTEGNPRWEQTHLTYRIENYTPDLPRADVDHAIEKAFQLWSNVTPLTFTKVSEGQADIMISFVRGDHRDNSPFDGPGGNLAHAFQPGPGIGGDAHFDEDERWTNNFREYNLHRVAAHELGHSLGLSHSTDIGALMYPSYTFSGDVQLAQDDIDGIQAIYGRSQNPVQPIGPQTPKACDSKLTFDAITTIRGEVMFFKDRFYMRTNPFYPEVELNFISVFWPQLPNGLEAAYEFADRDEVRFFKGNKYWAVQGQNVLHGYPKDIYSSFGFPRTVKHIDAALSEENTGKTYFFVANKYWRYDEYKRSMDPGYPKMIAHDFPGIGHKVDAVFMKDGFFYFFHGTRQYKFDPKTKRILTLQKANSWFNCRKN
TEST: Cleavage by recombinant protease MMP-1
Format: biochemical
APPLIED CONDITIONS: initial rate, recombinant MMP-1
I'd appreciate it if you could supply Rates of cleavage by recombinant proteases, MMP-1 values for the items below.

Consider the sequence shown here: APAGLIVPYN [proteolytically cleavable peptide (CP), protease substrate] What is its recorded Rates of cleavage by recombinant proteases, MMP-1?
0.0 µM/h

I would be grateful if you could share the reported Rates of cleavage by recombinant proteases, MMP-1 for PANLVAPDP [proteolytically cleavable peptide (CP), protease substrate] .
2.7 µM/h

I'd like to know its Rates of cleavage by recombinant proteases, MMP-1. The sequence in question is PVSLRSGS [proteolytically cleavable peptide (CP), protease substrate]
0.0 µM/h

What does the record list as Rates of cleavage by recombinant proteases, MMP-1 for RSKYLATA [proteolytically cleavable peptide (CP), protease substrate] ?
0.0 µM/h
